The reader will find reported pEC50 values listed item by item below.
# System: HeLa cells expressing mt-Keima and YFP-Parkin (HeLa MKYP)
# Method Notes: Human mt-Keima mitophagy assay
# Format: cell-based
# Condition Notes: Homo sapiens, HeLa, 16 hrs with compound, then FCCP/oligomycin for 6 hours, FACS
pEC50: −log10 of the molar value.

Molecule	pEC50
N#C[C@H]1CCN([C@H]2COc3ccccc3[C@@H]2Nc2ncnc3[nH]c(C(F)(F)F)cc23)C1	7.01
FC(F)(F)c1cc2c(N[C@H]3c4ccccc4OC[C@@H]3N3CCCC3)ncnc2[nH]1	6.43
FC(F)(F)O[C@H]1CCN([C@H]2COc3ccccc3[C@@H]2Nc2ncnc3[nH]c(C(F)(F)F)cc23)C1	7.05
Fc1ccc2c(c1)OC[C@H](N1CC[C@H](F)C1)[C@H]2Nc1ncnc2[nH]c(C(F)(F)F)cc12	6.32
N#C[C@@H]1CCN([C@H]2COc3ccccc3[C@@H]2Nc2ncnc3[nH]c(C(F)(F)F)cc23)C1	6.89
F[C@H]1CCN([C@H]2COc3ccccc3[C@@H]2Nc2nccc3[nH]c(C(F)(F)F)cc23)C1	6.92
FC(F)(F)C1CN([C@H]2COc3ccccc3[C@@H]2Nc2ncnc3[nH]c(C4CC4)cc23)CCO1 (single isomer, unassigned)	6.77
